assay: soluble fraction after stress (log2 fold change); higher = more stays soluble; pooled small domains, quantitative proteomics; settings: stress: 50 degC
soluble fraction (log2) reference
Respond numerically, and do not add a unit to the figure.

Worked set:
Need soluble fraction (log2), item HMISFLNFVRKEIDASQLKDSTKQNHLTTIGLLQSFKPSIEFKDLNYNFITSFEKYLYDAGYQM
0.133

Thanks! And HMEILTLEELKRLMAKAKLKQNQISGHAGVSKQQISMILAGKRNITKDVSDNLKANLAEYFP ?
-0.462

Thanks! And HMYPTPAAANRHFLDKWGHQEAYLGKVLNSRSRASEILNGKRPLSLSDLRTLRDNLGIPVDLLL ?
-0.489

Thanks! And HMETKPTELMLDVHKLRIGMFVYLDLGWMDHPFPLNRFKISTNAQIEQIKGLRLKQVKVMTALSDPASLL ?
-3.19

Further cases:
Need soluble fraction (log2), item HMNYDPEEKITQIRTMLEIHSRIEFNEIITPATRRGEIIIIFLALLHMIKRGYIVVRQHRLFGDITIFARD
-0.152

Thanks! And HMKTNQINVSGLSKEKNFEVLESLDVYKFYNLFFLNKIKIDQLINSYNHIDNYSVFKKYPSSLIVKLSE ?
0.0996

Thanks! And HMPKHHIESVIPENFAGERLDKVLAVLWGTFSRAQLTRWIRDGSLLLDGHKVKPNTKVDGSEKIVLQAEVA ?
-0.891

Thanks! And HMIENMQEYVRHIRAAVSDRLDLTREVEDDEIREVISQIVAEESRQNYLSLGERQTVIETVFNSMR ?
-0.2

====

assay: soluble fraction after stress (log2 fold change); higher = more stays soluble; pooled small domains, quantitative proteomics; settings: stress: 50 degC
Use 1 when the recorded soluble fraction (log2) is no lower than -0.3; use -1 when it is lower.

Is soluble fraction (log2) at least -0.3? Consider HMELVIGESLAVELLRPGKEDGQALGYLPDGSMVVVNNGRAFVGKRVTAEIIGVIRSAGGKMVFSNLLGE
-1

Further cases:
Is soluble fraction (log2) at least -0.3? Consider HMATKVSSGATVRDVADLLGLSSAELIKKLMMMGEMATLTQTLTDESIKSIADEYDRKIEIVSAAE
1

Thanks! And HMKDLDSLSQEAKSVYAVFSDKPIHIDDIKRKTGLDFSKLFKAVTELELAELISSGEGKMYSL ?
1

Thanks! And HMSGGIVRLAVKPWGEVFVDGASRGITPPLKQLTLDAGVHRIEIRNPAGPSWTKDVDVVAGQPTTVSHRF ?
1

Thanks! And HMEPPAPAPDIPYPSRVTVRREVDGWPHYYGTWTRTPPVLGYEGIWLVGVSLDGKVQFVPVDDVTIA ?
-1

Thanks! And HMGTGIKQVNVVSVIGQDEETAKTTLTNLGLKVNVTYATSTSDNGKVTKQSIDAGKTVDEGTSVTITVNKV ?
1

Thanks! And HMDANLGEIFKVYEQEIGALTPFVREEMLDAIDHYPRDWILDAIRESAKSNARNWKYTLAILKRWKAEG ?
-1

Thanks! And HMVAMYLRVGISNGRRYLSIVQGYRDQVTKKVRHNTVKSLGYLDDLEKHYPDPIAHFKAVVEEMNKKQALE ?
-1

====

soluble fraction (log2) reference
test: soluble fraction after stress (log2 fold change); higher = more stays soluble; pooled small domains, quantitative proteomics; settings: stress: 50 degC
Respond numerically, and do not add a unit to the figure.

Need soluble fraction (log2), item HMSFFNGNQMKILRKKLQLNQEEMGEKLGIKKSYVSQLENNRKEITEEIDQILQELEQEYQDKM
-0.323

Further cases:
Need soluble fraction (log2), item HMSVHSAELKKLKAHLLGIIGRELETQPSTENREEMVRQILHQSYESLRLNLPMQLKEELFNEILAEVL
0.353

Thanks! And HMMVIMRANATEPQIANVVAYVEKNGLNAHLSRGAERTVIGVVGDIRRVSKETFELMDGVDSVMRIS ?
-0.356

Thanks! And HMARRLELEDIPVDEVLFTASRNLVDAIEVMDPSRQAPMIQPWLKQALEWAVGALGFSKEDAVATLTSD ?
-0.0273

Thanks! And HMNTEFDVPDVVGKTLDEAEFVLKGSNLKRGLIMPVDDPSKAPGTIVRQNPEAGAGNKIRVGDVVDLWVVG ?
0.168

Thanks! And HMEPSERYKALQSLLPDYAKRLKKKGVTRHQLFLEYRLTHPDGYARSRFGTYFQAYLALSHP ?
-2.27

Thanks! And HMDGIIIPDVSGKSYAEAVATLNEKGFKVEKGEDAGSSLAKDLVSYTNPAAGNRAKSGATISVFVSTGANA ?
0.17

Thanks! And HMTAGTGIAYSEFRSKVQEGQVKDVAIAPDRITGTLSSGQKFSTVPVNDPGLPKMLDDFNVKYSGQA ?
0.104

Thanks! And HMVQVRQPAGAGDLFAKGRLHLSTGTIHTVKPLEVDLPKGRLTVVTGVSGSGKTTLILESLLPALAAAAA ?
0.482

Thanks! And HMVPHTTSMVAEVQERLFNLNYDPGPINGRMDQATITAITRFQRNFSLPQTGQIDEGFLNTLRDARL ?
-0.981

Thanks! And HMDRADIDAVDAEWVRATMERLGLRAKHIESHTGISKSTLSILLNGHRPLTRWHKIAFYYLFKHIEF ?
-2.68

Thanks! And HMKSVTVIFKESGNVVSSKKLSVVATAQYVDKSRITAPAGYRIATTDSKLKISENNTVTVEVK ?
0.212

Thanks! And HMEPLIRTLEEQIAEKIKNYRKGTRVYDAEHVDRWISQLPEEERMVVLTETNRLLEQNYVDQAKLME ?
-0.107

Thanks! And HMNDIVKIYTTHRIINIEGLAKNEPIMLYTINGTLIDKSVSSNGSAQLHVKGIGVYLVKWANNIVKVIVPN ?
-2.42

Reference source: the domain aggregation screens of Martell et al. (2025)
